B1: Syntaxin-binding protein 4, residues 493 to 538; numbered along this chain, Q6ZWJ1 (parent)
chain: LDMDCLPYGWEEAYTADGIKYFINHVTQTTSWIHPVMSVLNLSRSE

Variants of: B1
Assay: abundance fitness (aPCA) (normalised: wild type 0, dead -1); higher = more abundant; growth selection in yeast, the domain comes from the species named
Conditions: Homo sapiens
Classification field: Satisfied = abundance fitness at or over -0.4; Not satisfied = abundance fitness under -0.4.

- Mutation Id: "E11F"
  Class Name: "Not satisfied"
- Mutation Id: "R44L"
  Class Name: "Not satisfied"
- Mutation Id: "V26F"
  Class Name: "Satisfied"

Item `D17F` with abundance fitness of -0.4 or above?
Not satisfied

Please check the record `V39F` and state if its abundance fitness is at or above -0.4.
Satisfied

Could you verify whether the entry `E12I` shows abundance fitness of no less than -0.4?
Satisfied

Please tell me: is the variant `Y14S` at or over -0.4 in terms of abundance fitness?
Not satisfied

Answer whether abundance fitness of `E46Q` is greater than or equal to -0.4.
Satisfied

Threshold query (abundance fitness >= -0.4) on `E11T`
Not satisfied

Test whether the variant `S45A` records abundance fitness of -0.4 or higher.
Satisfied

Reported abundance fitness reaches at least -0.4 for `M37Q` ?
Satisfied

All figures here come from the Human Domainome abundance scans (Beltran et al. 2025).
